Where do the numbers come from? From ChEMBL document CHEMBL1255355.

Tested on: Escherichia coli
Experimental protocol: microbe, parasite or virus in culture
Type: functional
Experimental context: TOP10
Description: Antibacterial activity against Escherichia coli TOP10 harboring recombinant p6S3 expressing beta lactamase OXA-114a by agar dilution method
Measure: MIC (µg/mL)
Answers are plain numbers, in µg/mL.

Hey, quick one: what's MIC for each of these?
1. CC(=O)OCC1=C(C(=O)O)N2C(=O)[C@@H](NC(=O)Cc3cccs3)[C@H]2SC1
2. CO[C@@]1(NC(=O)C(C(=O)O)c2ccc(O)cc2)C(=O)N2C(C(=O)O)=C(CSc3nnnn3C)CO[C@@H]21 (stereo partly drawn)
3. CO/N=C(\C(=O)N[C@@H]1C(=O)N2C(C(=O)O)=C(COC(N)=O)CS[C@H]12)c1ccco1

1. 8
2. 1
3. 4
